Reported % UTC (Yap1 mRNA) values are given for each entry in this list.
Test system: Yap1 mRNA
Test: Dose-dependent inhibition of human Yap1 in SNU-449 cells (Example 9, RTS36584)
Assay type: cell-based
Conditions: 2000.00 nM, free uptake, approximately 48 hours
Strand notation (5' to 3'): a small letter for the sugar, then the base; units joined by * are phosphorothioate-linked, units joined directly phosphodiester-linked; [ ] holds rarer units or linkages, { } end groups; capitals alone tell only the bases. e = 2'-O-(2-methoxyethyl) (MOE); k = constrained ethyl (cEt); [5mC] = 5-methylcytosine; d = 2'-deoxy (DNA); m = 2'-O-methyl

| substance | readout_units | % UTC (Yap1 mRNA) |
| --- | --- | --- |
| 1198895 (kG*kG*dA*dA*dA*dT*dT*dG*dT*d[5mC]*dT*k[5mC]*dA*kT*dG*k[5mC]; antisense) [compound 1198895] | % UTC | 9 |
| 1198605 (GTAATATTGCAATCTG; modified gapmer, further chemistry not given here) [compound 1198605] | % UTC | 1 |
| 1198438 (kT*dG*dT*dA*dT*dG*dT*d[5mC]*dA*dG*dA*kA*eG*kA*eG*kT) [compound 1198438] | % UTC | 2 |
| 1074461 (kG*kA*kA*dA*dT*dT*dG*dT*d[5mC]*dT*d[5mC]*dA*dT*kG*k[5mC]*k[5mC]) [compound 1074461] | % UTC | 5 |
| 1198596 (k[5mC]*kT*k[5mC]*dT*dT*dA*dT*dA*dT*dG*dG*dT*kT*kT*kT*eG; antisense) [compound 1198596] | % UTC | 4 |
| 958499 (ATTAGAGTATGTGGCA; 3-10-3 cEt gapmer, further chemistry not given here) [compound 958499] | % UTC | 7 |
| 1198698 (kA*kA*dG*dT*dG*dT*dA*dT*dG*dT*d[5mC]*dA*kG*eA*kA*eG) [compound 1198698] | % UTC | 2 |
| 1198380 (kA*dG*dA*dG*dT*dA*dT*dG*dT*dG*dG*k[5mC]*eA*kA*eT*kA; antisense) [compound 1198380] | % UTC | 11 |
| 1076453 (GTAATATTGCAATCTG; 3-10-3 cEt gapmer, further chemistry not given here) [compound 1076453] | % UTC | 1 |
| 1198382 (kT*dT*dA*dG*dA*dG*dT*dA*dT*dG*dT*kG*eG*k[5mC]*eA*kA; antisense) [compound 1198382] | % UTC | 18 |
| 1198641 (kA*kT*dT*dA*dG*dA*dG*dT*dA*dT*dG*dT*kG*eG*k[5mC]*eA; antisense) [compound 1198641] | % UTC | 3 |
| 1200794 (kA*kG*kA*dG*dT*mA*dT*dG*dT*dG*dG*d[5mC]*dA*kA*kT*kA; antisense) [compound 1200794] | % UTC | 13 |
| 1197309 (kG*kT*kA*dA*mU*dA*dT*dT*dG*d[5mC]*dA*dA*dT*k[5mC]*kT*kG; antisense) [compound 1197309] | % UTC | 9 |
